Tested on: human breast cancer cells (MCF-7)
Experiment: MTT antiproliferative assay, MCF-7
Assay type: cell-based
Settings: 72 h
Procedure: Human lung cancer cell (A549,), human umbilical vein endothelial cells (HUVECs,), human colon cancer cell lines (HCT-15), human breast cancer cells (MCF-7), human liver cancer cells (HepG2), human pancreatic cancer cells (BxPC-3), and human hepatic cell line (L-02) were obtained from the Sichuan University. A549, HUVECs, and L-02 were cultured in DMEM medium (high glucose, HyClone, GE Healthcare, Sydney, Australia). […]

smiles-structure: COc1cc(NC(=O)[C@@H]2CCCN2)c2cc1Oc1ccc(cc1)C[C@H]1c3cc(c(OC)cc3CCN1C)Oc1c(OC)c(OC)cc3c1[C@H](C2)N(C)CC3
assayed-target: human breast cancer cells (MCF-7)
IC50: 1.46 µM

---

System: human lung cancer cells (A549)
Experiment: MTT antiproliferative assay, A549
Type: cell-based
Details: Homo sapiens, A549, 72 h
Lab note: cut-off is 6 µM. Strictly less in IC50 is Satisfied. Exactly 6 µM or more is Not satisfied.

smiles-structure: COc1cc(NC(=O)[C@H](C)N)c2cc1Oc1ccc(cc1)C[C@H]1c3cc(c(OC)cc3CCN1C)Oc1c(OC)c(OC)cc3c1[C@H](C2)N(C)CC3
label-value: Not satisfied
--
smiles-structure: COc1cc(NC(=O)CNC(=O)OC(C)(C)C)c2cc1Oc1ccc(cc1)C[C@H]1c3cc(c(OC)cc3CCN1C)Oc1c(OC)c(OC)cc3c1[C@H](C2)N(C)CC3
label-value: Satisfied
--
smiles-structure: COc1cc(NC(=O)[C@H](C)NC(=O)OC(C)(C)C)c2cc1Oc1ccc(cc1)C[C@H]1c3cc(c(OC)cc3CCN1C)Oc1c(OC)c(OC)cc3c1[C@H](C2)N(C)CC3
label-value: Not satisfied
--
smiles-structure: COc1cc(NC(=O)[C@@H](N)Cc2ccc(O)cc2)c2cc1Oc1ccc(cc1)C[C@H]1c3cc(c(OC)cc3CCN1C)Oc1c(OC)c(OC)cc3c1[C@H](C2)N(C)CC3
label-value: Satisfied

---

Catalogue of IC50 readings, one per entry.
Test system: human umbilical vein endothelial cells (HUVEC)
Experiment: MTT antiproliferative assay, HUVEC
Assay type: cell-based
Settings: 72 h
observable: IC50 (µM)

smiles-structure: COc1cc(NC(=O)[C@H](N)Cc2ccccc2)c2cc1Oc1ccc(cc1)C[C@H]1c3cc(c(OC)cc3CCN1C)Oc1c(OC)c(OC)cc3c1[C@H](C2)N(C)CC3
result-unit: µM
experimental-value: 1.92
//
smiles-structure: COc1cc(NC(=O)[C@@H]2CCCN2)c2cc1Oc1ccc(cc1)C[C@H]1c3cc(c(OC)cc3CCN1C)Oc1c(OC)c(OC)cc3c1[C@H](C2)N(C)CC3
result-unit: µM
experimental-value: 1.48
//
smiles-structure: COc1cc(NC(=O)[C@H](C)N)c2cc1Oc1ccc(cc1)C[C@H]1c3cc(c(OC)cc3CCN1C)Oc1c(OC)c(OC)cc3c1[C@H](C2)N(C)CC3
result-unit: µM
experimental-value: 2.2

---

Tested on: human umbilical vein endothelial cells (HUVEC)
Assay: MTT antiproliferative assay, HUVEC
Format: cell-based
Conditions: 72 h
Catalogue of IC50 readings, one per entry.

smiles-structure: COc1cc(NC(=O)[C@H](Cc2ccc(O)cc2)NC(=O)OC(C)(C)C)c2cc1Oc1ccc(cc1)C[C@H]1c3cc(c(OC)cc3CCN1C)Oc1c(OC)c(OC)cc3c1[C@H](C2)N(C)CC3
assayed-target: human umbilical vein endothelial cells (HUVEC)
IC50: 2.16 µM
--
smiles-structure: COc1cc(NC(=O)[C@@H](N)Cc2ccc(O)cc2)c2cc1Oc1ccc(cc1)C[C@H]1c3cc(c(OC)cc3CCN1C)Oc1c(OC)c(OC)cc3c1[C@H](C2)N(C)CC3
assayed-target: human umbilical vein endothelial cells (HUVEC)
IC50: 1.91 µM
--
smiles-structure: COc1cc(NC(=O)[C@H]2CCCN2C(=O)OC(C)(C)C)c2cc1Oc1ccc(cc1)C[C@H]1c3cc(c(OC)cc3CCN1C)Oc1c(OC)c(OC)cc3c1[C@H](C2)N(C)CC3
assayed-target: human umbilical vein endothelial cells (HUVEC)
IC50: 3.49 µM
--
smiles-structure: COc1cc(NC(=O)CNC(=O)OC(C)(C)C)c2cc1Oc1ccc(cc1)C[C@H]1c3cc(c(OC)cc3CCN1C)Oc1c(OC)c(OC)cc3c1[C@H](C2)N(C)CC3
assayed-target: human umbilical vein endothelial cells (HUVEC)
IC50: 1.68 µM
--
smiles-structure: COc1cc(NC(=O)[C@@H](Cc2ccccc2)NC(=O)OC(C)(C)C)c2cc1Oc1ccc(cc1)C[C@H]1c3cc(c(OC)cc3CCN1C)Oc1c(OC)c(OC)cc3c1[C@H](C2)N(C)CC3
assayed-target: human umbilical vein endothelial cells (HUVEC)
IC50: 1.8 µM
--
smiles-structure: COc1cc(NC(=O)[C@H](C)NC(=O)OC(C)(C)C)c2cc1Oc1ccc(cc1)C[C@H]1c3cc(c(OC)cc3CCN1C)Oc1c(OC)c(OC)cc3c1[C@H](C2)N(C)CC3
assayed-target: human umbilical vein endothelial cells (HUVEC)
IC50: 4.01 µM

---

Catalogue of IC50 readings, one per entry.
Tested on: human lung cancer cells (A549)
Assay: MTT antiproliferative assay, A549
Type: cell-based
Settings: Homo sapiens, A549, 72 h

smiles-structure: COc1cc(NC(=O)[C@H](CO)NC(=O)OC(C)(C)C)c2cc1Oc1ccc(cc1)C[C@H]1c3cc(c(OC)cc3CCN1C)Oc1c(OC)c(OC)cc3c1[C@H](C2)N(C)CC3
IC50, µM: 7.45
//
smiles-structure: COc1cc(NC(=O)[C@@H](NC(=O)OC(C)(C)C)[C@@H](C)O)c2cc1Oc1ccc(cc1)C[C@H]1c3cc(c(OC)cc3CCN1C)Oc1c(OC)c(OC)cc3c1[C@H](C2)N(C)CC3
IC50, µM: 12.3
//
smiles-structure: COc1cc(NC(=O)[C@@H](N)[C@@H](C)O)c2cc1Oc1ccc(cc1)C[C@H]1c3cc(c(OC)cc3CCN1C)Oc1c(OC)c(OC)cc3c1[C@H](C2)N(C)CC3
IC50, µM: 6.81

---

Tested on: human normal hepatocyte cells (L-02)
Test: MTT toxicity assay, normal hepatocytes L-02
Type: cell-based
Conditions: 72 h, normal hepatocyte L-02 (toxicity), read-out: Antiproliferative Activity (IC50/μM) L-02
observable: IC50

smiles-structure: COc1cc(NC(=O)[C@H](CC(C)C)NC(=O)OC(C)(C)C)c2cc1Oc1ccc(cc1)C[C@H]1c3cc(c(OC)cc3CCN1C)Oc1c(OC)c(OC)cc3c1[C@H](C2)N(C)CC3
experimental-value: 13.6 µM

smiles-structure: COc1cc(NC(=O)[C@H](N)Cc2ccccc2)c2cc1Oc1ccc(cc1)C[C@H]1c3cc(c(OC)cc3CCN1C)Oc1c(OC)c(OC)cc3c1[C@H](C2)N(C)CC3
experimental-value: 9.02 µM

smiles-structure: COc1cc(NC(=O)[C@@H](Cc2ccccc2)NC(=O)OC(C)(C)C)c2cc1Oc1ccc(cc1)C[C@H]1c3cc(c(OC)cc3CCN1C)Oc1c(OC)c(OC)cc3c1[C@H](C2)N(C)CC3
experimental-value: 15.5 µM

smiles-structure: COc1cc(NC(=O)[C@@H](N)CC(C)C)c2cc1Oc1ccc(cc1)C[C@H]1c3cc(c(OC)cc3CCN1C)Oc1c(OC)c(OC)cc3c1[C@H](C2)N(C)CC3
experimental-value: 12.1 µM

smiles-structure: COc1cc(NC(=O)[C@@H]2CCCN2)c2cc1Oc1ccc(cc1)C[C@H]1c3cc(c(OC)cc3CCN1C)Oc1c(OC)c(OC)cc3c1[C@H](C2)N(C)CC3
experimental-value: > 20 µM

smiles-structure: COc1cc(NC(=O)[C@H](CO)NC(=O)OC(C)(C)C)c2cc1Oc1ccc(cc1)C[C@H]1c3cc(c(OC)cc3CCN1C)Oc1c(OC)c(OC)cc3c1[C@H](C2)N(C)CC3
experimental-value: > 20 µM

smiles-structure: COc1cc(NC(=O)[C@@H](N)[C@@H](C)O)c2cc1Oc1ccc(cc1)C[C@H]1c3cc(c(OC)cc3CCN1C)Oc1c(OC)c(OC)cc3c1[C@H](C2)N(C)CC3
experimental-value: > 20 µM

smiles-structure: COc1cc(NC(=O)CN)c2cc1Oc1ccc(cc1)C[C@H]1c3cc(c(OC)cc3CCN1C)Oc1c(OC)c(OC)cc3c1[C@H](C2)N(C)CC3
experimental-value: > 20 µM

smiles-structure: COc1cc(NC(=O)[C@H](C)N)c2cc1Oc1ccc(cc1)C[C@H]1c3cc(c(OC)cc3CCN1C)Oc1c(OC)c(OC)cc3c1[C@H](C2)N(C)CC3
experimental-value: > 20 µM

smiles-structure: COc1cc(NC(=O)[C@@H](N)C(C)C)c2cc1Oc1ccc(cc1)C[C@H]1c3cc(c(OC)cc3CCN1C)Oc1c(OC)c(OC)cc3c1[C@H](C2)N(C)CC3
experimental-value: 14.5 µM

smiles-structure: COc1cc(NC(=O)[C@H](Cc2ccc(O)cc2)NC(=O)OC(C)(C)C)c2cc1Oc1ccc(cc1)C[C@H]1c3cc(c(OC)cc3CCN1C)Oc1c(OC)c(OC)cc3c1[C@H](C2)N(C)CC3
experimental-value: 11.8 µM

smiles-structure: COc1cc(NC(=O)CNC(=O)OC(C)(C)C)c2cc1Oc1ccc(cc1)C[C@H]1c3cc(c(OC)cc3CCN1C)Oc1c(OC)c(OC)cc3c1[C@H](C2)N(C)CC3
experimental-value: 8.59 µM

smiles-structure: COc1cc(NC(=O)[C@H](C)NC(=O)OC(C)(C)C)c2cc1Oc1ccc(cc1)C[C@H]1c3cc(c(OC)cc3CCN1C)Oc1c(OC)c(OC)cc3c1[C@H](C2)N(C)CC3
experimental-value: > 20 µM

smiles-structure: COc1cc(NC(=O)[C@H]2CCCN2C(=O)OC(C)(C)C)c2cc1Oc1ccc(cc1)C[C@H]1c3cc(c(OC)cc3CCN1C)Oc1c(OC)c(OC)cc3c1[C@H](C2)N(C)CC3
experimental-value: 17.5 µM

smiles-structure: COc1cc(NC(=O)[C@@H](NC(=O)OC(C)(C)C)[C@@H](C)O)c2cc1Oc1ccc(cc1)C[C@H]1c3cc(c(OC)cc3CCN1C)Oc1c(OC)c(OC)cc3c1[C@H](C2)N(C)CC3
experimental-value: > 20 µM

smiles-structure: COc1cc(NC(=O)[C@@H](N)CO)c2cc1Oc1ccc(cc1)C[C@H]1c3cc(c(OC)cc3CCN1C)Oc1c(OC)c(OC)cc3c1[C@H](C2)N(C)CC3
experimental-value: > 20 µM
